# target under test: HLA-B*0701 (as printed in the head of Table XXII) (human)
# assay overview: competitive inhibition of radiolabeled standard peptide binding to purified HLA
measured quantity: IC50

• MPKAGLLII (modifications not checked) [MAGE3 196] = 940 nM
